Collected growth values appear next to each entry.
- Test system: UACC-62 melanoma
- assay_protocol: NCI-60 one-dose screen, 48 h (100 = growth as untreated, 0 = no growth, -100 = all killed)
- setup_conditions: 10 µM unless noted
About 83,000 compounds went through this panel and 20% of them were active in at least one assay; those are over-represented in the sample as a whole. Calls of active or inactive are those of the source. How the source made its calls: active means growth percent below 10; inactive means the rest.

// below: answered compounds
Cc1cccc2c(=O)c3c(sc12)c(NCCNCCO)nc1ccccc13    26% (inactive)
Cc1nc(NN)c([N+](=O)[O-])c(NN)n1    97.3% (inactive)

Prompt line: Looking for the measured growth of Nc1c(Br)cc(Br)cc1-c1n[nH]c(=O)[nH]c1=O , can you help?
Response line: 106% (inactive)

Prompt line: Entry under review: O=C1C2CC3C(CC2C(=O)[N]1[Sn]([c]1ccccc1)([c]1ccccc1)[c]1ccccc1)C1(Cl)C(Cl)=C(Cl)C3(Cl)C1(Cl)Cl (configuration not stated) . Reported growth?
Response line: -95.7% (active)

Prompt line: Return reported growth; argument: O=C(N/N=C/c1ccc(F)cc1)c1[nH]c2ccc(I)cc2c1-c1ccccc1
Response line: 35.2% (inactive)

Prompt line: Would you kindly share the measured growth for CCC12CCC3c4ccc(O)cc4CCC3C1CC(O)C2O (configuration not stated) ?
Response line: 67.6% (inactive)

* * *

- Test system: EKVX NSCLC
- assay_protocol: NCI-60 one-dose screen, 48 h
- setup_conditions: 10 µM unless noted
About 83,000 compounds went through this panel and 20% of them were active in at least one assay; those are over-represented in the sample as a whole. Active and inactive are the calls of the source. How the source made its calls: active means growth percent below 10; inactive means the rest.
Respond using exactly one of the listed classes: label 1 for active, label 0 for inactive

Some solved cases for reference:
COc1cc(/C=C/c2cc(/C=C/c3ccc(O)c(OC)c3)n(-c3ccccc3)n2)ccc1O    label 1
COc1ccc(/C=C(\C#N)c2ccc(OC)cc2)cc1    label 0
NC1=NC(c2ccccc2OS(=O)(=O)c2ccc(Br)cc2)n2c(nc3ccccc32)N1 (stereo not drawn)    label 0

Prompt line: Per the records of this test, what outcome belongs to COc1ccc(S(=O)(=O)c2ccc(C(N)=O)cc2)cc1NC(=O)c1[nH]c(C)c2c1CCCCC2=O ?
Response line: label 0

Prompt line: Kindly provide the recorded test outcome for the following compound: COc1ccc(-c2nc3sccn3c2/C=C/C(=O)c2cc(OC)c(OC)c(OC)c2)cc1OC
Response line: label 0

Prompt line: Returns: the outcome recorded for O=c1c2c(=NCCN3CCCC3)cc3c(=O)n(CCCN4CCOCC4)c(=O)c4c(-c5ccc(CN6CCCC6)cc5)cc(c(O)n1CCCN1CCOCC1)c2c4-3 in this assay.
Response line: label 1

Prompt line: Recorded call for COC(=O)c1c2c(c(C)[n+]([O-])c1C)C(=O)C=C(NCc1ccc(F)cc1)C2=O ?
Response line: label 1

Prompt line: I would be grateful if you could indicate the recorded call for OC[C@@H](O)[C@@H](O)CO .
Response line: label 0

Prompt line: Entry Nc1cccc2c(=S)c3ccccc3[nH]c12 : call = ?
Response line: label 0

Prompt line: Please let me know the test result on file for CCC(C)[C@H]1O[C@]2(CC[C@@H]1C)C[C@@H]1C[C@@H](C/C=C(\C)[C@@H](OC3C[C@H](OC)C(O[C@H]4C[C@H](OC)[C@@H](O)[C@H](C)O4)[C@H](C)O3)[C@@H](C)/C=C/C=C3\CO[C@@H]4[C@H](O)C(C)=C[C@@H](C(=O)O1)[C@]34O)O2 (stereo partly drawn) .
Response line: label 1
